Readings of pIC50 for the listed compounds
target: DNA topoisomerase 1 (Homo sapiens, UniProt P11387); experiment: Inhibition of human topoisomerase 1 activity assessed as DNA triplex formation and presence of supercoiled DNA by microplate assay
Sequence (P11387 whole entry): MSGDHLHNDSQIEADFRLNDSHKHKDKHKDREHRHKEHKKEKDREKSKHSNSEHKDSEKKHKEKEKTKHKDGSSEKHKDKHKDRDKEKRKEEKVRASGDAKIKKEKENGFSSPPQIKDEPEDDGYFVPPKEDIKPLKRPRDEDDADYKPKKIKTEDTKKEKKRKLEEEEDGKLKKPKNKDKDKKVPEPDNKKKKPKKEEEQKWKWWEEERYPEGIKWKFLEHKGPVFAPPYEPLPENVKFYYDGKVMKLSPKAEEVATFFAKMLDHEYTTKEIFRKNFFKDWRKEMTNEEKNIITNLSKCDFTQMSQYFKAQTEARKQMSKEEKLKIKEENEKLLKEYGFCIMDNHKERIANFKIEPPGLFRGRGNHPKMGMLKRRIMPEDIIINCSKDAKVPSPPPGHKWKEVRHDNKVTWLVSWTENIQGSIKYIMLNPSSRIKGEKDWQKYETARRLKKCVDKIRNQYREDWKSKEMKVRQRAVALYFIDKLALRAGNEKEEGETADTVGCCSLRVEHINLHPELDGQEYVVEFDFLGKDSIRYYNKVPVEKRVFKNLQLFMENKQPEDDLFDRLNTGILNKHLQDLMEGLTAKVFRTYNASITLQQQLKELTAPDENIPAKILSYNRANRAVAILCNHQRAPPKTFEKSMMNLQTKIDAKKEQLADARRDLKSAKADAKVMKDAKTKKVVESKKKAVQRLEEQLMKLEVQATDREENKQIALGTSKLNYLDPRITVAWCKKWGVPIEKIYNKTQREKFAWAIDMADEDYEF
Keep it numeric: pIC50 is minus log10 of the concentration in mol/L.

# compound, number
rows = [
    ("NC(=O)c1ncn([C@@H]2O[C@H](CO)[C@@H](O)[C@H]2O)n1 [RIBAVIRIN]", 4.18),
]

Give pIC50 (DNA topoisomerase 1 (Homo sapiens, UniProt P11387)) of the following compound: CN(C=C(C#N)C#N)CC(O)C(O)C(O)C(O)CO (configuration not stated)
4.32

====

molecular target: ATP-dependent translocase ABCB1 (Homo sapiens); assay: Inhibition of P-glycoprotein 1 in human HeLa cells assessed as intracellular accumulation of Hoechst 33342 dye after 30 mins by fluorescence microscopic analysis; type: cell-based
parameterMeasured: pIC50
Please report pIC50 as the negative decimal logarithm of the molar concentration, giving only the number.

# compound, pIC50
rows = [
    ("CC(=O)OCC1OC(Sc2ccccc2)C(OC(C)=O)C(OC(C)=O)C1OC(C)=O (configuration not stated)", 4.81),
]

Value lookup for pIC50; key = CC(=O)OC[C@H](OC(C)=O)[C@H](OC(C)=O)[C@@H](CNC(=O)c1ccc(C)c(C)c1)OC(C)=O
4.81

====

# IC50 per record follows
target: ATP-dependent translocase ABCB1 (Homo sapiens, UniProt P08183); assay: Inhibition of human P-glycoprotein 1 ATPase activity assessed as remaining ATP level by luminescence analysis
Sequence (P08183 whole entry): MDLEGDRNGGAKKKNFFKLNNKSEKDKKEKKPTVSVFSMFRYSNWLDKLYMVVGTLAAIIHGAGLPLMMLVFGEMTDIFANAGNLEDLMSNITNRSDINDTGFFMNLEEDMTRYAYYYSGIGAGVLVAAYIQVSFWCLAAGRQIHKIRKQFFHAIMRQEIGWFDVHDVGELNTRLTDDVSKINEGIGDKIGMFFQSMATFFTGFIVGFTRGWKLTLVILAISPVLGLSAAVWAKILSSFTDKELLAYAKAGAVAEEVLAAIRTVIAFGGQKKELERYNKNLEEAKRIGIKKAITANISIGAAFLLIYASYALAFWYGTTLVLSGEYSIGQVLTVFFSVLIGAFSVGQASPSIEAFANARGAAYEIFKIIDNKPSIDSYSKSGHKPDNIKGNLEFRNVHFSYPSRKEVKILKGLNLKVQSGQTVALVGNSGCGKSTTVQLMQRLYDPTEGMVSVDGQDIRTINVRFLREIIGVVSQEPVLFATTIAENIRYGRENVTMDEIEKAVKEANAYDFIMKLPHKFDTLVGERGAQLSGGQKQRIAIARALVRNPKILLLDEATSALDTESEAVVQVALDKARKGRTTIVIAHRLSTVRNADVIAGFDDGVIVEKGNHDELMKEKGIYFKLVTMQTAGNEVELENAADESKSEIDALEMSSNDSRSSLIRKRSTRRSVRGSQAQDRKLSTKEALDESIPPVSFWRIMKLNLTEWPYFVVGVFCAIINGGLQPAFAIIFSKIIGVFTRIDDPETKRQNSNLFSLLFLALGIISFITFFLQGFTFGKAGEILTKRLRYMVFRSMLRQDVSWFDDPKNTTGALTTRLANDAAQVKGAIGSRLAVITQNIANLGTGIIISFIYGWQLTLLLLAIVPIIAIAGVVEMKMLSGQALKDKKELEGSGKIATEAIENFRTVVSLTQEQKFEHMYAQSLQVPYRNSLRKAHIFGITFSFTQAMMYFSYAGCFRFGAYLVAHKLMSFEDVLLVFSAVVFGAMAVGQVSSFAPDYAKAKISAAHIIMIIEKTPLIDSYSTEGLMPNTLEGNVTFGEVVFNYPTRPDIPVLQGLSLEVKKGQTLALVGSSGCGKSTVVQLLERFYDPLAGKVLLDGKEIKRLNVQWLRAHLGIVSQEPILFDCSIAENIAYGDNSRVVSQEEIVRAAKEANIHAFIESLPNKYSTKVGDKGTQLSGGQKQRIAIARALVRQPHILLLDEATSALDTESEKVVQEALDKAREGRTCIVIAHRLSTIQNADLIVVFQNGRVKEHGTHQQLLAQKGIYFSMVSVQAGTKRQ

# molecule, measurementTarget, IC50
measured = [
    ("CC(=O)OC[C@H](OC(C)=O)[C@H](OC(C)=O)[C@@H](CNC(=O)c1ccc(C)c(C)c1)OC(C)=O", "ATP-dependent translocase ABCB1 (Homo sapiens, UniProt P08183)", "28 µM"),
]

Need IC50, item CC(=O)OCC1OC(Sc2ccccc2)C(OC(C)=O)C(OC(C)=O)C1OC(C)=O (configuration not stated)
37 µM
